# target: human HSD17β13 (stable HEK293T cell line overexpressing human HSD17β13) (Homo sapiens)
# Sequence (Q7Z5P4 20-300): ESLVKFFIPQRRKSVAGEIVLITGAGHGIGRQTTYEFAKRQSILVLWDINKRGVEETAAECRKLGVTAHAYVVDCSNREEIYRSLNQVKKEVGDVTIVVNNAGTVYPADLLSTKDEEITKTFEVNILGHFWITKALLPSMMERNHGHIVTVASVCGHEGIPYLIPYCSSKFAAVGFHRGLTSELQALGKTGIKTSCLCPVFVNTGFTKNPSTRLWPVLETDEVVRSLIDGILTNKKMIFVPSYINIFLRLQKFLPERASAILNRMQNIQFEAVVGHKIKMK
# methodNotes: HSD17β13 inhibitor cell-based screening assay (conversion of estradiol-d2 to estrone-d2 by RF-MS)
# conditions: conversion of estradiol-d2 to estrone-d2 after 24 hours
outcomeMeasure: IC50

For the molecule COc1ccc(-c2nc3sc4c(O)c(Cl)ccc4c3c(=O)n2Cc2ccnc(C(F)(F)F)c2)c(C2CC2)c1 [Example 155] , give its measured IC50 value. < 100 nM

For the molecule COc1ccc(-c2nc3sc4c(O)c(N)ccc4c3c(=O)n2Cc2cnco2)c(C2CC2)c1 [Example 28] , give its measured IC50 value. 1000 to 100000 nM

For the molecule Cn1cc(Cn2c(-c3cc(F)c(F)cc3C3CC3)nc3sc4c(O)c(Cl)ccc4c3c2=O)cn1 [Example 216] , give its measured IC50 value. < 100 nM

For the molecule O=c1c2c(nc(-c3cc(F)c(F)cc3C3CC3)n1Cc1cn[nH]n1)sc1c(O)c(Cl)ccc12 [Example 214] , give its measured IC50 value. < 100 nM

For the molecule O=c1c2c(nc(-c3ccc(F)cc3C3CC3)n1Cc1cc(C(F)(F)F)no1)sc1c(O)c(Cl)ccc12 [Example 40] , give its measured IC50 value. < 100 nM

For the molecule O=c1c2c(nc(-c3ccc(C(F)F)cc3C3CC3)n1Cc1cnco1)sc1c(O)c(Cl)ccc12 [Example 159] , give its measured IC50 value. < 100 nM

For the molecule O=c1c2c(nc(-c3ncc(C(F)(F)F)cc3C3CC3)n1Cc1cnco1)sc1c(O)c(Cl)ccc12 [Example 90] , give its measured IC50 value. < 100 nM
